target: Beta-secretase 1 (Homo sapiens, UniProt P56817); assay: Inhibition of recombinant BACE-1 (unknown origin) expressed in Escherichia coli using biotinylated peptide substrate treated 20 mins before substrate addition measured after 3 hrs by fluorescence polarization assay
Sequence (P56817 whole entry): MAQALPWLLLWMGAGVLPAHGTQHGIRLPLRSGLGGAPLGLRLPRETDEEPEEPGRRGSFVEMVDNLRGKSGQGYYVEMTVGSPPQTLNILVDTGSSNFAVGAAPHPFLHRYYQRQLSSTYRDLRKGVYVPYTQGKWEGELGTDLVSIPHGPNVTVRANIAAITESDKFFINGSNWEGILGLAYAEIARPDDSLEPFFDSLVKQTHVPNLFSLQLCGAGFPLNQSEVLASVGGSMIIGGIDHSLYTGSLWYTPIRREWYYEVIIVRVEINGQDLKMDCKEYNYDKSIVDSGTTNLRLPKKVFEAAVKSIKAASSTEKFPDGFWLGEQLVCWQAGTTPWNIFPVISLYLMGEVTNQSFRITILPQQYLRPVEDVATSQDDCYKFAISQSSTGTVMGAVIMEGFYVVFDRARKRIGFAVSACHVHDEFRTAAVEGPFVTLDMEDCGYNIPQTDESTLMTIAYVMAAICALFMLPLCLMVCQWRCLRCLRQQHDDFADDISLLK
REPORTED ENDPOINT: IC50 (nM)

Past entries and their recorded results:
{"COMPOUND": "CC(=O)N[C@@H](Cc1cc(F)cc(F)c1)[C@H](O)CN[C@H]1CC(C)(C)Oc2ccc(OC(F)(F)F)cc21", "UNIT ABBREVIATION": "nM", "NUMERIC VALUE": 89}
{"COMPOUND": "CC(=O)N[C@@H](Cc1cc(F)cc(F)c1)[C@H](O)CN[C@H]1CCOc2ccc(OC3CCOC3)cc21 (mixture of isomers)", "UNIT ABBREVIATION": "nM", "NUMERIC VALUE": 858}
{"COMPOUND": "CCC[C@@]1(C)C[C@H](NC[C@@H](O)[C@H](Cc2cc(F)cc(F)c2)NC(C)=O)c2cc(CC(C)(C)C)ccc2O1", "UNIT ABBREVIATION": "nM", "NUMERIC VALUE": 6}
{"COMPOUND": "CCc1ccc2c(c1)[C@@H](NC[C@@H](O)[C@H](Cc1cc(F)cc(F)c1)NC(C)=O)CS(=O)(=O)C2", "UNIT ABBREVIATION": "nM", "NUMERIC VALUE": 116}

I. CCC[C@]1(C)C[C@H](NC[C@@H](O)[C@H](Cc2cc(F)cc(F)c2)NC(C)=O)c2cc(CC(C)(C)C)ccc2O1
II. CC(=O)N[C@@H](Cc1cc(F)cc(F)c1)[C@H](O)CN[C@H]1CCOc2ccc(CC(C)(C)F)cc21
Given the listed items, does I or II have the lesser reported IC50? Which one? Tell me its label.
I
(I: 15 nM, II: 148 nM)

1. CC(=O)N[C@@H](Cc1cc(F)cc(F)c1)[C@H](O)CN[C@H]1COCc2ccc(CC(C)(C)C)cc21
2. CC(=O)N[C@@H](Cc1cc(F)cc(F)c1)[C@H](O)CN[C@H]1CS(=O)(=O)Cc2ccc(C(C)C)cc21
Which value of IC50 is greater, the one for 1 or the one for 2 ? Which one? Tell me its label.
1
(1: 19700 nM, 2: 127 nM)

P. CC(=O)N[C@@H](Cc1cc(F)cc(F)c1)[C@H](O)CN[C@H]1CCOc2ccc(CC(C)(F)F)cc21
Q. CC(=O)N[C@@H](Cc1cc(F)cc(F)c1)[C@H](O)CN[C@H]1CCCc2ccc(CC(C)C)cc21
R. CC(=O)N[C@@H](Cc1cc(F)cc(F)c1)[C@H](O)CN[C@H]1CC(C)(C)Oc2ccc(CC(C)(F)F)cc21
S. CC(=O)N[C@@H](Cc1cc(F)cc(F)c1)[C@H](O)CN[C@H]1CCOc2ccc(CC(C)(C)C(F)F)cc21
Could you please order the items by IC50, going from the lowest number to the highest? Arrange the labels as the request states and list them.
R, Q, P, S

a. CC(=O)N[C@@H](Cc1cc(F)cc(F)c1)[C@H](O)CN[C@H]1CCOc2ccc(CC(C)(C)C#N)cc21
b. CC(=O)N[C@@H](Cc1cc(F)cc(F)c1)[C@H](O)CN[C@H]1CC(C)(C)Oc2ccc(CC(C)(C)C)cc21
Given the listed items, does a or b have the lesser reported IC50? Which one? Tell me its label.
b

###

assay: Dissociation constant, pKa of the compound; assay type: physicochemical
REPORTED ENDPOINT: pKa

A. CCc1ccc2c(c1)[C@@H](NC[C@@H](O)[C@H](Cc1cc(F)cc(F)c1)NC(C)=O)CS(=O)(=O)C2
B. CC(=O)N[C@@H](Cc1cc(F)cc(F)c1)[C@H](O)CN[C@H]1CCCc2ccc(CC(C)(C)C)cc21
Given the listed items, does A or B have the lesser reported pKa? Which one? Tell me its label.
A
(A: 5.8, B: 8.9)

###

target: Beta-secretase 1 (Homo sapiens, UniProt P56817); assay: Inhibition of recombinant BACE-1 (unknown origin) expressed in Escherichia coli using biotinylated peptide substrate treated 20 mins before substrate addition measured after 3 hrs by fluorescence polarization assay
pIC50: −log10 of the molar value.
REPORTED ENDPOINT: pIC50

{"COMPOUND": "CC(=O)N[C@@H](Cc1cc(F)cc(F)c1)[C@H](O)CN[C@H]1CS(=O)(=O)Cc2ccc(CC(C)(C)C)cc21", "pIC50": 7.38}
{"COMPOUND": "CC(=O)N[C@@H](Cc1cc(F)cc(F)c1)[C@H](O)CN[C@H]1CCOc2ccc(OC(C)C)cc21", "pIC50": 6.38}
{"COMPOUND": "CCCCc1ccc2c(c1)[C@@H](NC[C@@H](O)[C@H](Cc1cc(F)cc(F)c1)NC(C)=O)CCC2", "pIC50": 6.24}
{"COMPOUND": "CC(=O)N[C@@H](Cc1cc(F)cc(F)c1)[C@H](O)CN[C@H]1CC(C)(C)Oc2ccc(OC(C)(C)C)cc21", "pIC50": 6.16}
{"COMPOUND": "CC(=O)N[C@@H](Cc1cc(F)cc(F)c1)[C@H](O)CN[C@H]1CCOc2ccc(CC(C)(C)C)cc21", "pIC50": 7.34}
{"COMPOUND": "CC(=O)N[C@@H](Cc1cc(F)cc(F)c1)[C@H](O)CN[C@H]1CCCc2ccc(Cc3ccccc3)cc21", "pIC50": 5.33}

1. CC(=O)N[C@@H](Cc1cc(F)cc(F)c1)[C@H](O)CN[C@H]1CCN(C)c2ccc(CC(C)(C)C)cc21
2. COC[C@@]1(C)C[C@H](NC[C@@H](O)[C@H](Cc2cc(F)cc(F)c2)NC(C)=O)c2cc(CC(C)(C)C)ccc2O1 (mixture of isomers)
Which value of pIC50 is greater, the one for 1 or the one for 2 ? Which one? Tell me its label.
2

###

experiment: Apparent permeability of the compound from apical to basolateral side of MDCK2 cells at 5 uM after 120 mins by LC/MS/MS analysis; assay type: ADME, cell-based, Canis lupus familiaris, MDCK-II; settings: dog, MDCK
REPORTED ENDPOINT: Papp A→B at 2 h, 5 µM (×10⁻⁶ cm/s)

{"COMPOUND": "CC(=O)N[C@@H](Cc1cc(F)cc(F)c1)[C@H](O)CN[C@H]1CCOc2ccc(OC3CCOC3)cc21 (mixture of isomers)", "UNIT ABBREVIATION": "×10⁻⁶ cm/s", "Papp A→B at 2 h, 5 µM": 7.1}

a. CC(=O)N[C@@H](Cc1cc(F)cc(F)c1)[C@H](O)CN[C@H]1CCOc2ccc(OC(C)C)cc21
b. CC(=O)N[C@@H](Cc1cc(F)cc(F)c1)[C@H](O)CN[C@H]1CC(C)(C)Oc2ccc(OC(C)(C)C)cc21
Which value of Papp A→B at 2 h, 5 µM is greater, the one for a or the one for b ? Which one? Tell me its label.
a

###

assay: Lipophilicity, log P of the compound; type: physicochemical; conditions: octanol/water
REPORTED ENDPOINT: logP

I. CC(=O)N[C@@H](Cc1cc(F)cc(F)c1)[C@H](O)CN[C@H]1CCCc2ccc(CC(C)(C)C)cc21
II. CCc1ccc2c(c1)[C@@H](NC[C@@H](O)[C@H](Cc1cc(F)cc(F)c1)NC(C)=O)CS(=O)(=O)C2
Which value of logP is greater, the one for I or the one for II ? Which one? Tell me its label.
I

###

test: Apparent permeability of the compound from apical to basolateral side of MDCK2 cells at 5 uM after 120 mins by LC/MS/MS analysis; format: ADME, cell-based, Canis lupus familiaris, MDCK-II; settings: dog, MDCK
REPORTED ENDPOINT: Papp A→B at 2 h, 5 µM (×10⁻⁶ cm/s)

{"STRUCTURE": "CC(=O)N[C@@H](Cc1cc(F)cc(F)c1)[C@H](O)CN[C@H]1CCOc2ccc(CC(C)(C)F)cc21", "REPORTED ENDPOINT": "Papp A→B at 2 h, 5 µM", "NUMERIC VALUE": 8.3}

1. CC(=O)N[C@@H](Cc1cc(F)cc(F)c1)[C@H](O)CN[C@H]1CC(C)(C)Oc2ccc(OC(F)(F)F)cc21
2. CC(=O)N[C@@H](Cc1cc(F)cc(F)c1)[C@H](O)CN[C@H]1CCOc2ccc(CC(C)(F)F)cc21
3. CCc1ccc2c(c1)[C@@H](NC[C@@H](O)[C@H](Cc1cc(F)cc(F)c1)NC(C)=O)CS(=O)(=O)C2
Hello, I need these entries ordered by Papp A→B at 2 h, 5 µM, highest reading first. Thanks! Arrange the labels as the request states and list them.
2, 1, 3
(2: 14.6 ×10⁻⁶ cm/s, 1: 1.2 ×10⁻⁶ cm/s, 3: 0.3 ×10⁻⁶ cm/s)
